System: HL-60
Assay: Cytotoxicity against human HL60 cells after 72 hrs by MTT assay
Assay type: functional, cell-based
Conditions: HL-60, 72 h
attribute measured: IC50 (µM)
Report only the number, with the unit µM understood.

`CC(C)[C@@H]1CC[C@@H](C)C[C@H]1O[C@@H]1O[C@H](CO[C@@H]2O[C@H](COC(=O)c3ccc(Br)cc3)[C@@H](OC(=O)c3ccc(Br)cc3)[C@H](O)[C@H]2O)[C@@H](O)[C@H](O)[C@H]1O` has a reported IC50 of 7

CC(C)[C@@H]1CC[C@@H](C)C[C@H]1OC1O[C@H](CO[C@@H]2O[C@H](COC(=O)c3ccc(Br)cc3)[C@@H](OC(=O)c3ccc(Br)cc3)[C@H](O)[C@H]2O)[C@@H](O)[C@H](O)[C@H]1O (single isomer, unassigned) has a reported IC50 of 7

`CC(C)[C@H]1CC[C@H](C)C[C@@H]1O[C@@H]1O[C@H](CO[C@@H]2O[C@H](COC(=O)c3ccc(Br)cc3)[C@@H](OC(=O)c3ccc(Br)cc3)[C@H](O)[C@H]2O)[C@@H](O)[C@H](O)[C@H]1O` has a reported IC50 of 14.9

`CC(C)[C@H]1CC[C@H](C)C[C@@H]1O[C@H]1O[C@H](CO[C@@H]2O[C@H](COC(=O)c3ccc(Br)cc3)[C@@H](OC(=O)c3ccc(Br)cc3)[C@H](O)[C@H]2O)[C@@H](O)[C@H](O)[C@H]1O` has a reported IC50 of 7.3

###

Tested on: U-937
Test: Cytotoxicity against human U937 cells after 72 hrs by MTT assay
Type: functional, cell-based
Conditions: U-937, 72 h
attribute measured: IC50 (µM)
Report only the number, with the unit µM understood.

`CC(C)[C@H]1CC[C@H](C)C[C@@H]1O[C@H]1O[C@H](CO[C@@H]2O[C@H](COC(=O)c3ccc(Br)cc3)[C@@H](OC(=O)c3ccc(Br)cc3)[C@H](O)[C@H]2O)[C@@H](O)[C@H](O)[C@H]1O` has a reported IC50 of 6.9

`CC(C)[C@H]1CC[C@H](C)C[C@@H]1O[C@@H]1O[C@H](CO[C@@H]2O[C@H](COC(=O)c3ccc(Br)cc3)[C@@H](OC(=O)c3ccc(Br)cc3)[C@H](O)[C@H]2O)[C@@H](O)[C@H](O)[C@H]1O` has a reported IC50 of 14.1

`CC(C)[C@@H]1CC[C@@H](C)C[C@H]1O[C@@H]1O[C@H](CO[C@@H]2O[C@H](COC(=O)c3ccc(Br)cc3)[C@@H](OC(=O)c3ccc(Br)cc3)[C@H](O)[C@H]2O)[C@@H](O)[C@H](O)[C@H]1O` has a reported IC50 of 9.2

CC(C)[C@@H]1CC[C@@H](C)C[C@H]1OC1O[C@H](CO[C@@H]2O[C@H](COC(=O)c3ccc(Br)cc3)[C@@H](OC(=O)c3ccc(Br)cc3)[C@H](O)[C@H]2O)[C@@H](O)[C@H](O)[C@H]1O (single isomer, unassigned) has a reported IC50 of 5.8
